- Test system: Mycobacterium tuberculosis
- MEASUREMENT NOTES: Antitubercular activity against Mycobacterium tuberculosis H37Rv measured on day 7 post dose by microplate alamar blue assay
- Type: functional
- PROTOCOL CONDITIONS: 168 h
MEASURE: MIC90 (µg/mL)
Your answer should be a plain number; it is taken to be in µg/mL.

1. Cc1ccn2nc(C)c(C(=O)NCc3ccc(OC(F)(F)F)cc3)c2c1; 0.91
2. CO[C@H]1/C=C/O[C@@]2(C)Oc3c(C)c(O)c4c(O)c(c(/C=N/N5CCN(C)CC5)c(O)c4c3C2=O)NC(=O)/C(C)=C\C=C\[C@H](C)[C@H](O)[C@@H](C)[C@@H](O)[C@@H](C)[C@H](OC(C)=O)[C@@H]1C; 0.003

Reported MIC90 for Mycobacterium tuberculosis, given Cc1ccn2nc(C)c(C(=O)NCc3ccc(N4CCC(Oc5ccc(OC(F)(F)F)cc5)CC4)cc3)c2c1 ? 0.006

Reported MIC90 for Mycobacterium tuberculosis, given CCc1nn2ccc(Cl)cc2c1C(=O)NC/C=C(\C)CCC=C(C)C ? 0.17

Reported MIC90 for Mycobacterium tuberculosis, given CCc1nn2ccc(Cl)cc2c1C(=O)NCc1ccc(-c2ccc(OC(F)(F)F)cc2)nc1 ? 0.2

Reported MIC90 for Mycobacterium tuberculosis, given NNC(=O)c1ccncc1 ? 0.1
